pIC50: −log10 of the molar value.
Quick record: pIC50, Cyclin-dependent kinase 5/CDK5 activator 1 (Homo sapiens, UniProt Q00535).

chemical-string | pIC50
CN1CCC([C@@](C)(O)c2ccc3cnc(Nc4ccc(S(C)(=O)=O)cc4)cc3n2)CC1 | > 8.00
CN1CCC(C(=O)c2ccc3cnc(Nc4ccc(-n5cccn5)cc4F)cc3n2)CC1 | > 8.00
CN1CCC(N(CC(=O)O)c2ccc3cnc(Nc4cccc(S(N)(=O)=O)c4)cc3n2)CC1 | > 8.00

Numbers sourced from ChEMBL document CHEMBL4831533.
